These measurements were taken from the supplement of paper PMC5998384.

This listing pairs sequences with measured thermal stability score.
system: HeLa Kyoto; assay: thermal stability score vs G1/S (z-score of summed log2 fold changes over temperatures); higher = more thermally stable than in G1/S; conditions: cell cycle stage: early G1 (4.5 h after nocodazole release);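 note: synchronized HeLa Kyoto cells, proteins quantified by TMT10plex mass spectrometry, three biological replicates, mitosis taken 0.5 h after nocodazole release, G1/S directly after double thymidine block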
The answer should be a number; do not append a unit.

MONOMER SEQUENCE	TARGET OR TEST SYSTEM	thermal stability score
MTDAAVSFAKDFLAGGVAAAISKTAVAPIERVKLLLQVQHASKQITADKQYKGIIDCVVRIPKEQGVLSFWRGNLANVIRYFPTQALNFAFKDKYKQIFLGGVDKRTQFWLYFAGNLASGGAAGATSLCFVYPLDFARTRLAADVGKAGAEREFRGLGDCLVKIYKSDGIKGLYQGFNVSVQGIIIYRAAYFGIYDTAKGMLPDPKNTHIVISWMIAQTVTAVAGLTSYPFDTVRRRMMMQSGRKGTDIMYTGTLDCWRKIARDEGGKAFFKGAWSNVLRGMGGAFVLVLYDEIKKYT [SLC25A5]	HeLa Kyoto	-2.25

Now look at this one.
Which thermal stability score value is on record for MGKVRGLRARVHQAAVRPKGEAAPGPAPPAPEATPPPASAAGKDWAFINTNIFARTKIDPSALVQKLELDVRSVTSVRRGEAGSSARSVPSIRRGAEAKTVLPKKEKMKLRREQWLQKIEAIKLAEQKHREERRRRATVVVGDLHPLRDALPELLGLEAGSRRQARSRESNKPRPSELSRMSAAQRQQLLEEERTRFQELLASPAYRASPLVAIGQTLARQMQLEDGGQL [FAM207A] ? 0.13
